Source: the NIST ThermoML archive (doi:10.1021/acs.jced.7b00221)

// reported viscosity for each item listed
- test-summary: xn = mol fraction of the nth substance listed
- particulars: 318.15 K; 100 kPa; Liquid; Cone and plate viscometry; x1 = 0.5
Numbers after ± are expanded uncertainties.
Provide a numeric answer, followed by its unit.

Solved cases below.
molecule="CCCCCCCC[P+](CC)(CC)CC.O=[N+]([O-])c1cn[n-]c1 [triethyloctylphosphonium 4-nitropyrazolide] + CCCCCCn1cc[n+](C)c1C.O=S(=O)([N-]S(=O)(=O)C(F)(F)F)C(F)(F)F" result="82 ± 10 mPa·s"
molecule="CCCCCCCCCCCCCC[P+](CCCCCC)(CCCCCC)CCCCCC.N#Cc1ccc[n-]1 [trihexyl(tetradecyl)phosphonium 2-cyanopyrrolide] + CCCCCCn1cc[n+](C)c1C.O=S(=O)([N-]S(=O)(=O)C(F)(F)F)C(F)(F)F" result="116 ± 14 mPa·s"
molecule="CCCCCCn1cc[n+](C)c1C.O=[N+]([O-])c1cn[n-]c1 [1-hexyl-2,3-dimethylimidazolium 4-nitropyrazolide] + CCCCCCCCCCCCCC[P+](CCCCCC)(CCCCCC)CCCCCC.O=S(=O)([N-]S(=O)(=O)C(F)(F)F)C(F)(F)F" result="142 ± 17 mPa·s"

--- query ---
# molecule CCCCCCn1cc[n+](C)c1.O=[N+]([O-])c1cn[n-]c1 [1-hexyl-3-methylimidazolium 4-nitropyrazolide] + CCCCCCCCCCCCCC[P+](CCCCCC)(CCCCCC)CCCCCC.O=S(=O)([N-]S(=O)(=O)C(F)(F)F)C(F)(F)F ; its viscosity = 118 ± 14 mPa·s
